Origin of the recorded values: ChEMBL document CHEMBL3994666

Test system: PBMC
Test: Anti-inflammatory activity in human PBMC assessed as inhibition of LPS-induced IL-12/23 p40 production pretreated for 1 hr followed by LPS stimulation measured after 20 hrs
Assay type: functional, cell-based
pIC50: −log10 of the molar value.

| Smi | Tested On | pIC50 |
| --- | --- | --- |
| C[C@]1(C(=O)[C@H](Cc2ccccc2)NC(=O)[C@H](CO)NC(=O)c2cccc(=O)[nH]2)CO1 | PBMC | < 5.01 |
| COc1ccc(C[C@H](NC(=O)[C@H](C)NC(=O)CN2CCOCC2)C(=O)N[C@@H](Cc2ccccc2)C(=O)[C@@]2(C)CO2)cc1 | PBMC | 6.92 |
| COc1ccc(C[C@H](NC(=O)c2cccc(=O)[nH]2)C(=O)N[C@@H](Cc2ccccc2)C(=O)[C@@]2(C)CO2)cc1 | PBMC | < 5.25 |

* * *

Some compounds, each annotated with its measured pIC50.
Target: Proteasome subunit beta type-8 (Homo sapiens)
Sequence (P28062 whole entry): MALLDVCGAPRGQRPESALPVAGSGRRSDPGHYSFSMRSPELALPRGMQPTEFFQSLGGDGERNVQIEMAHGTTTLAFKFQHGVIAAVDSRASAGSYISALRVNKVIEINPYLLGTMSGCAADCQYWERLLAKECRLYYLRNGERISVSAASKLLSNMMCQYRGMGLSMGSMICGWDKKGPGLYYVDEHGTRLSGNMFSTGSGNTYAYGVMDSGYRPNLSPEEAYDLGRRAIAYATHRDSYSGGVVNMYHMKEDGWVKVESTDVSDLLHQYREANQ
Test: Inhibition of LMP7 in human MOLT4 cell lysate after 1 hr by ELISA
pIC50: −log10 of the molar value.
Assay Readout: pIC50

| Smi | Assay Readout | Assay Result |
| --- | --- | --- |
| C[C@]1(C(=O)[C@H](Cc2ccccc2)NC(=O)[C@H](CO)NC(=O)c2cccc(=O)[nH]2)CO1 | pIC50 | 5.37 |
| COc1ccc(C[C@H](NC(=O)c2cccc(=O)[nH]2)C(=O)N[C@@H](Cc2ccccc2)C(=O)[C@@]2(C)CO2)cc1 | pIC50 | 5.32 |
| C[C@H](NC(=O)c1cccc(=O)[nH]1)C(=O)N[C@@H](Cc1ccccc1)C(=O)[C@@]1(C)CO1 | pIC50 | 4.35 |

* * *

Assay: Stability in Balb/c mouse liver S9 fraction assessed as compound remaining at 1 uM incubated for 90 mins in absence of NADPH by LC-MS/MS analysis
Assay type: ADME, tissue-based
Conditions: read-out: Stability
Some compounds, each annotated with its measured remaining at 1.5 h, 1 µM.
Assay Readout: remaining at 1.5 h, 1 µM (%)

| Smi | Assay Result |
| --- | --- |
| C[C@]1(C(=O)[C@H](Cc2ccccc2)NC(=O)[C@H](CO)NC(=O)c2cccc(=O)[nH]2)CO1 | 90.9 |
| COc1ccc(C[C@H](NC(=O)c2cccc(=O)[nH]2)C(=O)N[C@@H](Cc2ccccc2)C(=O)[C@@]2(C)CO2)cc1 | 0.4 |
| COc1ccc(C[C@H](NC(=O)[C@H](C)NC(=O)CN2CCOCC2)C(=O)N[C@@H](Cc2ccccc2)C(=O)[C@@]2(C)CO2)cc1 | 106 |
| C[C@H](NC(=O)c1cccc(=O)[nH]1)C(=O)N[C@@H](Cc1ccccc1)C(=O)[C@@]1(C)CO1 | 85.1 |

* * *

Assay: Stability in Sprague-Dawley rat liver S9 fraction assessed as compound remaining at 1 uM incubated for 90 mins in absence of NADPH by LC-MS/MS analysis
Format: ADME, tissue-based
Conditions: read-out: Stability
Some compounds, each annotated with its measured remaining at 1.5 h, 1 µM.

| Smi | remaining at 1.5 h, 1 µM |
| --- | --- |
| COc1ccc(C[C@H](NC(=O)c2cccc(=O)[nH]2)C(=O)N[C@@H](Cc2ccccc2)C(=O)[C@@]2(C)CO2)cc1 | 8% |
| COc1ccc(C[C@H](NC(=O)[C@H](C)NC(=O)CN2CCOCC2)C(=O)N[C@@H](Cc2ccccc2)C(=O)[C@@]2(C)CO2)cc1 | 23.3% |
| C[C@]1(C(=O)[C@H](Cc2ccccc2)NC(=O)[C@H](CO)NC(=O)c2cccc(=O)[nH]2)CO1 | 92.3% |
| C[C@H](NC(=O)c1cccc(=O)[nH]1)C(=O)N[C@@H](Cc1ccccc1)C(=O)[C@@]1(C)CO1 | 58.8% |

* * *

Some compounds, each annotated with its measured remaining at 1.5 h, 1 µM.
Test: Stability in human liver S9 fraction assessed as compound remaining at 1 uM incubated for 90 mins in absence of NADPH by LC-MS/MS analysis
Type: ADME, tissue-based
Conditions: read-out: Stability
Assay Readout: remaining at 1.5 h, 1 µM (%)

| Smi | Assay Readout | Assay Result |
| --- | --- | --- |
| C[C@]1(C(=O)[C@H](Cc2ccccc2)NC(=O)[C@H](CO)NC(=O)c2cccc(=O)[nH]2)CO1 | remaining at 1.5 h, 1 µM | 81.5 |
| C[C@H](NC(=O)c1cccc(=O)[nH]1)C(=O)N[C@@H](Cc1ccccc1)C(=O)[C@@]1(C)CO1 | remaining at 1.5 h, 1 µM | 25.3 |
| COc1ccc(C[C@H](NC(=O)[C@H](C)NC(=O)CN2CCOCC2)C(=O)N[C@@H](Cc2ccccc2)C(=O)[C@@]2(C)CO2)cc1 | remaining at 1.5 h, 1 µM | 8.6 |
| COc1ccc(C[C@H](NC(=O)c2cccc(=O)[nH]2)C(=O)N[C@@H](Cc2ccccc2)C(=O)[C@@]2(C)CO2)cc1 | remaining at 1.5 h, 1 µM | 1.1 |

* * *

Experiment: Solubility of the compound in phosphate buffer at pH 7.2 at 10 mg/ml after 24 hrs by UV-HPLC method
Type: physicochemical
Some compounds, each annotated with its measured solubility at 24 h.
Assay Readout: solubility at 24 h (µg/mL)

| Smi | Assay Readout | Assay Result |
| --- | --- | --- |
| COc1ccc(C[C@H](NC(=O)[C@H](C)NC(=O)CN2CCOCC2)C(=O)N[C@@H](Cc2ccccc2)C(=O)[C@@]2(C)CO2)cc1 | solubility at 24 h | 461 |
| C[C@]1(C(=O)[C@H](Cc2ccccc2)NC(=O)[C@H](CO)NC(=O)c2cccc(=O)[nH]2)CO1 | solubility at 24 h | 6640 |
| C[C@H](NC(=O)c1cccc(=O)[nH]1)C(=O)N[C@@H](Cc1ccccc1)C(=O)[C@@]1(C)CO1 | solubility at 24 h | 7520 |
| COc1ccc(C[C@H](NC(=O)c2cccc(=O)[nH]2)C(=O)N[C@@H](Cc2ccccc2)C(=O)[C@@]2(C)CO2)cc1 | solubility at 24 h | 166 |

* * *

Target: Proteasome subunit beta type-9 (Homo sapiens, UniProt P28065)
Sequence (P28065 whole entry): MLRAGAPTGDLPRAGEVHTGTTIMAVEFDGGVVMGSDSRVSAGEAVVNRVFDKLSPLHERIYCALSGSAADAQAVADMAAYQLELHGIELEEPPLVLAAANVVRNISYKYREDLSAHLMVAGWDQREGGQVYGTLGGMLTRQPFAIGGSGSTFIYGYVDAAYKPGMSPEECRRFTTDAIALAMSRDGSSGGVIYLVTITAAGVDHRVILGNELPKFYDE
Experiment: Inhibition of LMP2 in human MOLT4 cell lysate after 1 hr by ELISA

| Smi | IC50, nM |
| --- | --- |
| C[C@H](NC(=O)c1cccc(=O)[nH]1)C(=O)N[C@@H](Cc1ccccc1)C(=O)[C@@]1(C)CO1 | 112 |
| C[C@]1(C(=O)[C@H](Cc2ccccc2)NC(=O)[C@H](CO)NC(=O)c2cccc(=O)[nH]2)CO1 | 51 |
| COc1ccc(C[C@H](NC(=O)c2cccc(=O)[nH]2)C(=O)N[C@@H](Cc2ccccc2)C(=O)[C@@]2(C)CO2)cc1 | 140 |
